Recorded Signal (peptides that bind to 23K21 and 8I10), one value per entry.
# Tested on: HuM2e antibody 23K12
# Format: binding, human
QUANTITY_MEASURED: Signal (peptides that bind to 23K21 and 8I10)

- SUBSTANCE: "413 (SLLTEVETPIRNEWGCRCNDPSD; epitope peptide) [compound 413]"
  TGT: "HuM2e antibody 23K12"
  VALUE_MEASURED: 797
- SUBSTANCE: "352 (SLQTEVETPIRNEWGCRCNDSSD; epitope peptide) [compound 352]"
  TGT: "HuM2e antibody 23K12"
  VALUE_MEASURED: 1561
- SUBSTANCE: "396 (SLLTEVETPIRNEWGCRCNPSSD; epitope peptide) [compound 396]"
  TGT: "HuM2e antibody 23K12"
  VALUE_MEASURED: 849
- SUBSTANCE: "575 (SLLTEVRTPIRNEWGCRCNDSSD; epitope peptide) [compound 575]"
  TGT: "HuM2e antibody 23K12"
  VALUE_MEASURED: 866
- SUBSTANCE: "526 (MSLLTECGMSCLCEC; epitope peptide) [compound 526]"
  TGT: "HuM2e antibody 23K12"
  VALUE_MEASURED: 992
- SUBSTANCE: "479 (SLLTEDETPIRNEWGCRCNDSSD; epitope peptide) [compound 479]"
  TGT: "HuM2e antibody 23K12"
  VALUE_MEASURED: 1196
- SUBSTANCE: "620 (SLLTEVETPIRFEWGCRCNDSSD; epitope peptide) [compound 620]"
  TGT: "HuM2e antibody 23K12"
  VALUE_MEASURED: 806
- SUBSTANCE: "559 (SLLTEVETAIRNEWGCRCNDSSD; epitope peptide) [compound 559]"
  TGT: "HuM2e antibody 23K12"
  VALUE_MEASURED: 895
- SUBSTANCE: "556 (SLLTELETPIRNEWGCRCNDSSD; epitope peptide) [compound 556]"
  TGT: "HuM2e antibody 23K12"
  VALUE_MEASURED: 900
- SUBSTANCE: "562 (SLLTEVETPIRWEWGCRCNDSSD; epitope peptide) [compound 562]"
  TGT: "HuM2e antibody 23K12"
  VALUE_MEASURED: 890
- SUBSTANCE: "551 (SLLTEVATPIRNEWGCRCNDSSD; epitope peptide) [compound 551]"
  TGT: "HuM2e antibody 23K12"
  VALUE_MEASURED: 914
- SUBSTANCE: "423 (SLLTEVETPIRNEWGCRCNDSHD; epitope peptide) [compound 423]"
  TGT: "HuM2e antibody 23K12"
  VALUE_MEASURED: 782
- SUBSTANCE: "527 (SLLTEVEQPIRNEWGCRCNDSSD; epitope peptide) [compound 527]"
  TGT: "HuM2e antibody 23K12"
  VALUE_MEASURED: 986
- SUBSTANCE: "585 (SLLTEVETPIRLEWGCRCNDSSD; epitope peptide) [compound 585]"
  TGT: "HuM2e antibody 23K12"
  VALUE_MEASURED: 853
- SUBSTANCE: "522 (SLLTMVETPIRNEWGCRCNDSSD; epitope peptide) [compound 522]"
  TGT: "HuM2e antibody 23K12"
  VALUE_MEASURED: 1011
- SUBSTANCE: "598 (SLLTEVETPIRNEWGCRKNDSSD; epitope peptide) [compound 598]"
  TGT: "HuM2e antibody 23K12"
  VALUE_MEASURED: 835
- SUBSTANCE: "327 (SLMTEVETPIRNEWGCRCNDSSD; epitope peptide) [compound 327]"
  TGT: "HuM2e antibody 23K12"
  VALUE_MEASURED: 1729
- SUBSTANCE: "353 (SLLTEVGCSLLTEC; epitope peptide) [compound 353]"
  TGT: "HuM2e antibody 23K12"
  VALUE_MEASURED: 1556

Reference for the values: patent US8932597B2
